SUBJECT_OF_TEST: alpha-1A adrenoceptor (Homo sapiens, UniProt P35348)
Construct: expressed in transfected cells; host or cells: CHO-K1
Sequence (P35348 whole entry): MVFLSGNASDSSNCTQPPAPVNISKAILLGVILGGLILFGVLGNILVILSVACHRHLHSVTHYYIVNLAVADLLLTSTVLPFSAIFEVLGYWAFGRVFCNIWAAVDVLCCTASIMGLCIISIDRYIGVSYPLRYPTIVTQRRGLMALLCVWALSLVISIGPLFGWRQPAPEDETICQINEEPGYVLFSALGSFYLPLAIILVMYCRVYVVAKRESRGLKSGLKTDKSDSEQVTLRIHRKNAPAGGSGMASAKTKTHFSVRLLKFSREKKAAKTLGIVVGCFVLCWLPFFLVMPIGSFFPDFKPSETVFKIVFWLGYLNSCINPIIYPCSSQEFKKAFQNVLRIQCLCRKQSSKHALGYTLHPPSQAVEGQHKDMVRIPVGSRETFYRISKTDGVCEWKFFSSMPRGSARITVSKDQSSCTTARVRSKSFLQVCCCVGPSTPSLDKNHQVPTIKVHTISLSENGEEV
ASSAY_COMMENT: [3H]prazosin binding (alpha1-adrenoceptor) assay, alpha-1A
STUDY_CONDITIONS: membranes of transfected CHO-KI cells, read-out: affinity towards the alpha-1A adrenoceptor (pKi) (converted)
RECORDED_ENDPOINT: Ki (nM)

Reference set (5 entries):
{"COMPOUND": "COc1cc2nc(N3CCc4ccc(N5CCCC5)cc4C3)[nH]c(=O)c2cc1OC", "ENDPOINT_UNIT": "nM", "Ki": 2.04}
{"COMPOUND": "COc1cc2[nH]c(N3CCc4c(cccc4N4CCOCC4)C3)nc(=O)c2cc1OC", "ENDPOINT_UNIT": "nM", "Ki": 89.1}
{"COMPOUND": "COc1ccc(-n2cnc3c2CCN(c2nc4cc(OC)c(OC)cc4c(=O)[nH]2)C3)cc1", "ENDPOINT_UNIT": "nM", "Ki": 2.75}
{"COMPOUND": "COc1cc2[nH]c(N3CCn4c(cnc4-c4ccccc4)C3)nc(=O)c2cc1OC", "ENDPOINT_UNIT": "nM", "Ki": 0.912}
{"COMPOUND": "COc1cc2c(cc1OC)S(=O)(=O)NC(N1CCc3c(ncnc3N3CCOCC3)C1)=N2", "ENDPOINT_UNIT": "nM", "Ki": 15.8}

P. COc1cc2nc(N3CCc4nc5ccncc5cc4C3)[nH]c(=O)c2cc1OC
Q. COc1cc2nc(N3CCc4c(ncn4-c4ccccc4)C3)[nH]c(=O)c2cc1OC
Just curious, which one has the larger Ki reading, P or Q ? Label of pick, please.
P
(P: 3.47 nM, Q: 0.832 nM)

1. COc1cc2nc(N3CCc4c([nH]c5ccccc45)C3)[nH]c(=O)c2cc1OC
2. COc1cc2[nH]c(N3CCc4cc(O)c(O)cc4C3C)nc(=O)c2cc1OC (centres unmarked)
3. COc1cc2nc(N3CCc4c(ncnc4Nc4cccc(C)n4)C3)[nH]c(=O)c2cc1OC
// sort entries: Ki, high to low List the labels in the requested order.
2, 3, 1
(2: 219 nM, 3: 3.8 nM, 1: 0.479 nM)

1. COc1cc2[nH]c(N3CCc4ccncc4C3)nc(=O)c2cc1OC
2. COc1cc2nc(N3CCc4ccc(S(=O)(=O)N5CCOCC5)cc4C3)[nH]c(=O)c2cc1OC
Field: lower Ki | Options: 1 / 2 Answer with the label corresponding to your selection.
1
